- assaySystem: NPM-ALK (Homo sapiens, UniProt Q9UM73)
- Construct: nucleophosmin (NPM, NPM1; human P06748) fusion partner; the other entry of the earlier key: Npm1 (Q61937, Nucleophosmin)
- Sequence (Q9UM73 with tags, fused parts or gaps): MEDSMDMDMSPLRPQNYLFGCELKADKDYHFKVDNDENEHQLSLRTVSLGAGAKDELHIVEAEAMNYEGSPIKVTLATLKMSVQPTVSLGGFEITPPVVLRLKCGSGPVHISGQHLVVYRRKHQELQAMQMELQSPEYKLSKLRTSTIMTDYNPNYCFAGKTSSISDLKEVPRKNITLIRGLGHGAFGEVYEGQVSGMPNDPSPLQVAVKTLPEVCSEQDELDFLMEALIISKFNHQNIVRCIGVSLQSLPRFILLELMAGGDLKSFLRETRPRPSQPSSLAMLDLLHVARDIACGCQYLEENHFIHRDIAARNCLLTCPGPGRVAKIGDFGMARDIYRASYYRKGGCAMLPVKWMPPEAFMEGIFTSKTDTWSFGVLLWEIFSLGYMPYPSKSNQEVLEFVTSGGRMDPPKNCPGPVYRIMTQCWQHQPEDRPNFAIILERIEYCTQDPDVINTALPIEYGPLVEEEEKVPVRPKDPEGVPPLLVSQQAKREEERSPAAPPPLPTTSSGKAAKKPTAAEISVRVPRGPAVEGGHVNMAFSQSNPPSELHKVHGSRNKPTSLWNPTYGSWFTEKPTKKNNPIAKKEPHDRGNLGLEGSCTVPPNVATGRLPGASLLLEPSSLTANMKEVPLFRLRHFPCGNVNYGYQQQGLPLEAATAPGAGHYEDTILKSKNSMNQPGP
- assaySummary: NPM-ALK BaF3 assay (growth inhibition of BaF3-NPM-ALK cells)
- testConditions: human NPM-ALK overexpressing murine BaF3 cells
property: IC50 (µM)

These recorded examples may help you get a feel for the data.
INSERT INTO assay_data (molecule, measureunit, readoutvalue) VALUES
  ('CNCC(=O)N1CCC(c2cc(OC)c(Nc3nc(Nc4ccccc4S(=O)(=O)C(C)C)n4nccc4n3)cc2C)CC1 [Ex 17]', 'µM', 0.022),
  ('CC(C)S(=O)(=O)c1ccccc1Nc1nc(Nc2ccc3c(c2)CCNC3)nc2ccnn12 [Ex 41]', 'µM', 0.085),
  ('COc1cc(C2CCN(C(=O)CCCN3CCCC3)CC2)c(C)cc1Nc1nc(Nc2ccccc2S(=O)(=O)C(C)C)n2nccc2n1 [Ex 100]', 'µM', 0.033),
  ('COc1cc(C2CCN(CC(N)=O)CC2)c(C)cc1Nc1nc(Nc2ccccc2S(=O)(=O)C(C)C)n2nccc2n1 [Ex 23]', 'µM', 0.016);

I = CC(C)S(=O)(=O)c1ccccc1Nc1nc(Nc2ccc(C3CCNCC3)cc2)nc2ccnn12 [Ex 37]
II = COc1cc(C2CCN(C(=O)CN3CC[C@@H](F)C3)CC2)c(C)cc1Nc1nc(Nc2ccccc2S(=O)(=O)C(C)C)n2nccc2n1 [Ex 62]
III = COc1cc(C2CCN(C(=O)[C@@H](C)NCCO)CC2)c(C)cc1Nc1nc(Nc2ccccc2S(=O)(=O)C(C)C)n2nccc2n1 [Ex 97]
IV = COc1cc(C2CCN(C(=O)C(C)(CO)CO)CC2)c(C)cc1Nc1nc(Nc2ccccc2S(=O)(=O)C(C)C)n2nccc2n1 [Ex 106]
-- ask List items by IC50 in falling order. # answer = labels listed in requested order
-- reply I, II, III, IV
(I: 0.13 µM, II: 0.058 µM, III: 0.032 µM, IV: 0.016 µM)

I = COc1cc(C2CCN(C(=O)[C@H]3COC(C)(C)CN3)CC2)c(C)cc1Nc1nc(Nc2ccccc2S(=O)(=O)C(C)C)n2nccc2n1 [Ex 85]
II = COc1cc(C2CCN(C(=O)[C@@H]3C[C@H](O)CN3)CC2)c(C)cc1Nc1nc(Nc2ccccc2S(=O)(=O)C(C)C)n2nccc2n1 [Ex 55]
-- ask Identify the entry with the smaller IC50: I or II . Refer to your chosen item by its label in the answer.
-- reply I

###

- assaySystem: NPM-ALK (Homo sapiens)
- Construct: nucleophosmin (NPM, NPM1; human P06748) fusion partner; the other entry of the earlier key: Npm1 (Q61937, Nucleophosmin)
- assaySummary: NPM-ALK BaF3 assay (growth inhibition of BaF3-NPM-ALK cells)
- testConditions: human NPM-ALK overexpressing murine BaF3 cells
property: IC50 (nM)

Worked set:
INSERT INTO assay_data (compound, assaysystem, measureunit, readoutvalue) VALUES
  ('COc1cc(C2CCN(CC3CC3)CC2)c(C)cc1Nc1nc(Nc2ccccc2S(=O)(=O)C(C)C)n2nccc2n1 [Ex 8]', 'NPM-ALK (Homo sapiens)', 'nM', 43),
  ('CCN(CC)CC(=O)N1CCC(c2cc(OC)c(Nc3nc(Nc4ccccc4S(=O)(=O)C(C)C)n4nccc4n3)cc2C)CC1 [Ex 110]', 'NPM-ALK (Homo sapiens)', 'nM', 16),
  ('COc1cc(C2CCN(C)CC2)c(C)cc1Nc1nc(Nc2ccccc2S(=O)(=O)C(C)C)n2nccc2n1 [Ex 3]', 'NPM-ALK (Homo sapiens)', 'nM', 19),
  ('COc1cc(C2CCN(C(=O)CN(C)C)CC2)c(C)cc1Nc1nc(Nc2ccccc2S(=O)(=O)C(C)C)n2nccc2n1 [Ex 2]', 'NPM-ALK (Homo sapiens)', 'nM', 11);

A = COc1cc(C2CCN(C3CCOCC3)CC2)c(C)cc1Nc1nc(Nc2ccccc2S(=O)(=O)C(C)C)n2nccc2n1 [Ex 83]
B = COc1cc(C2CCN(C(=O)[C@H](C)N3CCCC3)CC2)c(C)cc1Nc1nc(Nc2ccccc2S(=O)(=O)C(C)C)n2nccc2n1 [Ex 80]
C = COc1cc(C2CCN(C(=O)CNC[C@@H](O)CO)CC2)c(C)cc1Nc1nc(Nc2ccccc2S(=O)(=O)C(C)C)n2nccc2n1 [Ex 43]
D = COc1cc(C2CCN(C(=O)[C@@H](C)N(C)CCO)CC2)c(C)cc1Nc1nc(Nc2ccccc2S(=O)(=O)C(C)C)n2nccc2n1 [Ex 98]
E = Cc1cc(C2CCN(CCS(C)(=O)=O)CC2)c(C)cc1Nc1nc(Nc2ccccc2S(=O)(=O)C(C)C)n2nccc2n1 [Ex 45]
-- ask Endpoint returns the given compounds ordered by ascending IC50. Thanks in advance for listing the labels in the requested order.
-- reply D, A, B, E, C

I = COc1cc(C2CCN(C(=O)CN)CC2)c(C)cc1Nc1nc(Nc2ccccc2S(=O)(=O)C(C)C)n2nccc2n1 [Ex 68]
II = COc1cc(C2CCN(C(=O)C3COCCN3)CC2)c(C)cc1Nc1nc(Nc2ccccc2S(=O)(=O)C(C)C)n2nccc2n1 (centres unmarked) [Ex 32]
-- ask Which of these two has the smaller recorded IC50: I or II ? // output: label of the selected item
-- reply I
(I: 17 nM, II: 29 nM)

1 = COc1cc(C2CCN(C(=O)[C@H](C)N3CCC3)CC2)c(C)cc1Nc1nc(Nc2ccccc2S(=O)(=O)C(C)C)n2nccc2n1 [Ex 61]
2 = CC(C)S(=O)(=O)c1ccccc1Nc1nc(Nc2ccc(C3CCN(CCC(N)=O)CC3)cc2)nc2ccnn12 [Ex 92]
-- ask Could you please tell me which of these two has the higher IC50: 1 or 2 ? Write down the label of the entry you select.
-- reply 2
